Target: H1299 cell pAxl (Homo sapiens, UniProt P30530)
Construct: endogenous in cells
Sequence (P30530 26-894): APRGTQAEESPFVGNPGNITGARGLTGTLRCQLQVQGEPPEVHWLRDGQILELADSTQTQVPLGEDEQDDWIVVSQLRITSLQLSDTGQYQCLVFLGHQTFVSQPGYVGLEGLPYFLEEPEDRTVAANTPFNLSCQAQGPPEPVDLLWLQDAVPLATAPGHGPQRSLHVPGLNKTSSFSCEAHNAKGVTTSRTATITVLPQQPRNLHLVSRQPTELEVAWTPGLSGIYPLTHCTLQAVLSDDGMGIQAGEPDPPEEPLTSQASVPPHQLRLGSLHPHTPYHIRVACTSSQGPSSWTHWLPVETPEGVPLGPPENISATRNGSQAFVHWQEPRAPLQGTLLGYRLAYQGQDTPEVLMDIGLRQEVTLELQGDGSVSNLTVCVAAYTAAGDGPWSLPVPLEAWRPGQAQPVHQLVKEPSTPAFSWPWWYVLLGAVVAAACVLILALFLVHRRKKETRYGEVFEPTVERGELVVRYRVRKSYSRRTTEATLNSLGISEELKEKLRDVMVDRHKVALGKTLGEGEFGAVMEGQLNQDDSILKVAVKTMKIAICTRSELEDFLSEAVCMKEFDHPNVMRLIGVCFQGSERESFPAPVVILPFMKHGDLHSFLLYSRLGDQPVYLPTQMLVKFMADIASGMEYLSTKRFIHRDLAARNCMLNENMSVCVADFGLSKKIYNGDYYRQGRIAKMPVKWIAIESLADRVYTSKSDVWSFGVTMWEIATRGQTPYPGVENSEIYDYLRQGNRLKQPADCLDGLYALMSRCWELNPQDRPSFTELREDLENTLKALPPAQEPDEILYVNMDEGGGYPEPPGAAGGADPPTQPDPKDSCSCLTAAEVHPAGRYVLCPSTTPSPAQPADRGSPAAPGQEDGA
Experiment: Inhibitory activity on the cell pAxl (Western Blot)
Details: H1299 cells, compound 1.1, 3.3, 10, 30 nM, hGAS6 200 ng/mL
Test readout: IC50

Task: Given the compound "COc1cc2nccc(Oc3ccc(NC(=O)c4nn(C(C)C)cc(-c5ccc(F)cc5)c4=O)nc3)c2cc1OC" , what is its reported IC50?
Output: < 1.1 nM

Task: State the recorded IC50 for this entry: "COc1cc2nccc(Oc3ccc(NC(=O)c4cn(C(C)C)nc(-c5ccc(F)cc5)c4=O)nc3)c2cc1OC"
Output: < 10 nM

Task: I would be grateful if you could share the reported IC50 for "COc1cc2nccc(Oc3cnc(NC(=O)c4cn(C(C)C)nc(-c5ccc(F)cc5)c4=O)nc3)c2cc1OC" .
Output: 3.3 nM

Task: Any idea what its IC50 is? The compound is "COc1cc2nccc(Oc3ccc(NC(=O)c4cn(C(C)C)cc(-c5ccc(F)cc5)c4=O)nc3)c2cc1OC"
Output: < 1.1 nM
